- PROTOCOL: protein stability index of a GFP-peptide fusion (GPS, HEK-293T) (PSI 1-6); higher = more stable;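 note: 24-mer peptide tiles fused after GFP, lentivirally expressed, FACS-sorted into six equal bins by GFP/DsRed ratio, decoded by Illumina sequencing, PSI is the read-weighted mean bin number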
- TEST SETTINGS: treatment: DMSO; c terminus: a fixed tail appended
Each record here notes measured protein stability index.

Would you please look over these solved cases?
INSERT INTO results (monomer_sequence, result) VALUES
  ('IPMHIDHDRNMDWVSTQLQATCNV [FADS1]', 3),
  ('TSFQWVTKWVDYSNKYGFGYQLSD [PLK2]', 2.06),
  ('VHSSPVSSPSVSGPRRLVSCLSSQ [SPACA3]', 3.38);

Record request: protein stability index value, item ADTKKRHTPRGHAESTSNRQPRKQ [SMOC2] 5.34

Consider next the sequence YKRSMDPGYPKMIAHDFPGIGHKV [MMP1] in the same way. 2.55

Further, for AAAFPTEDSRTSKESMSEADRAQK [EHMT1] ? 5.59

Further, for LQMEMKEDDVSFLMKHKSRKRRLF [TRIM35] ? 3.35

###

- PROTOCOL: protein stability index of a GFP-peptide fusion (GPS, HEK-293T) (PSI 1-6); higher = more stable
- TEST SETTINGS: treatment: DMSO; c terminus: a fixed tail appended
MEASUREMENT TYPE: protein stability index
API doc: respond with a numeric literal and nothing else, no unit.

Some solved entries appear below for comparison.
INSERT INTO measurements (monomer_sequence, measurement_type, result_number) VALUES
  ('TGSPARLSLRQTGSPGMIYSTRYG [KCNAB2]', 'protein stability index', 3.15),
  ('GYGGGFSSSSSFGSGFGGGYGGGL [KRT16]', 'protein stability index', 2.47),
  ('IDICHDHFGWYLGWGDCVWLPYLY [DHCR7]', 'protein stability index', 2.55),
  ('HEWKSLAPMDAPRYQHGIAVIGNF [KLHL13]', 'protein stability index', 2.22),
  ('MTLEEFSAGEQKTERMDKVGDALE [GADD45A]', 'protein stability index', 5.28),
  ('VRDGPFGFSPIIGRFCGQQNPPVI [NETO1]', 'protein stability index', 2.27),
  ('AAIGVTTSPVLPSLIQLLGRNFIL [HACD3]', 'protein stability index', 2.67);

As a next step, examine the sequence that follows.
Given FQVPVLCAVMNVVFITILIIALIA [CD69] , state its recorded protein stability index. 2.91

###

- PROTOCOL: protein stability index of a GFP-peptide fusion (GPS, HEK-293T) (PSI 1-6); higher = more stable
- TEST SETTINGS: treatment: MLN4924 1 uM, 8 h; c terminus: a fixed tail appended
Recorded protein stability index values for a group of sequences are listed next.
// keep it numeric: no unit symbol after the value

As a guide, the following entries are already answered.
INSERT INTO results (monomer_sequence, measurement_type, result_number) VALUES
  ('NYRSFEPILRLLPQGISPVSQHWA [ZER1]', 'protein stability index', 2.09),
  ('EILTCGRDGEPEPMQKLQDLVNRT [RBBP5]', 'protein stability index', 3.78),
  ('GDGLLVGSEKVTMQNLNDRLASYL [KRT16]', 'protein stability index', 2.78),
  ('IQSLTCEVDGLRGTNEALLRQLRE [PRPH]', 'protein stability index', 3.96),
  ('PPPELMDVSLVGGPADCSPPHPAP [DYRK1B]', 'protein stability index', 5.1);

Return reported protein stability index; argument: ESPSLTSTPVCSQKVVVTTPLHRD [MYBL2] 4.5

Next: LVMEGTDDGRLLEYDTVTREVKVL [APMAP] 3.58

Consider next the sequence QLLSAMGSLCSLWFGASVLSLLEL [SCNN1D] in the same way. 3.19

Also, KFKESFAEMNRGSNEWKTVVGGAM [COX4I1] please. 3.2

Data credit: the supplement of paper PMC10567573
